Tested on: HOP-62 NSCLC
Assay: NCI-60 one-dose screen, 48 h (100 = growth as untreated, 0 = no growth, -100 = all killed)
Conditions: 10 µM unless noted
About 83,000 compounds went through this panel and 20% of them were active in at least one assay; those are over-represented in the sample as a whole.
measured.metric: growth (%)
Please reply with the bare figure in % and do not write the unit itself.

q: Query growth for O=C(NN1C(=O)CSC1c1ccc(Cl)cc1)c1[nH]c2ccc(F)cc2c1-c1ccccc1 (stereo not given)
a: 78.1

***
q: For the compound CCCC(c1nnnn1C1CCCCC1)N1CCN(C(=O)c2ccco2)CC1 (stereo not given) , give its measured growth value.
a: 79.2

q: Report growth for O=C(NC1CCN(Cc2ccccc2)CC1)c1cc(C(=O)NC2CCN(Cc3ccccc3)CC2)cc(C(=O)NC2CCN(Cc3ccccc3)CC2)c1
a: 58.7

q: # return recorded growth for entry COc1cc(C#N)cc2[nH]c(=O)oc12
a: 103

q: Return value of growth for input CCOC(=O)c1c(C=O)nc2ccccc2c1/C=C/c1ccc(Cl)cc1 , no commentary.
a: 103

###

System: MDA-MB-435 melanoma
Assay: NCI-60 one-dose screen, 48 h (100 = growth as untreated, 0 = no growth, -100 = all killed)
Conditions: 10 µM unless noted
About 83,000 compounds went through this panel and 20% of them were active in at least one assay; those are over-represented in the sample as a whole.
Please enter True where growth is greater than or equal to 80%, and False where it is lower.

Past entries and their recorded results:
q: Does the compound COc1ccc(C)c2sc(N(Cc3cccnc3)C(=O)c3ccc(C#N)cc3)nc12 have recorded growth that is 80% or more?
a: False

q: Reported growth at or above 80%? CC(=O)c1ccc(Cc2ccc(C(C)=O)s2)s1
a: True

q: Form field: growth at least 80%? Entry: CCOC(=O)CSc1c(-c2ccccc2)c2cc(Cl)ccc2[nH]c1=O
a: True

Further cases:
q: Record CCOc1ccc2nc(C)cc(Nc3ccc(Br)cc3)c2c1 ; criterion: growth no lower than 80%. Met?
a: True

q: Entry O=c1oc2ccc(I)cc2c(=O)n1-c1ccc(Cl)cc1F : is its growth no less than 80%?
a: False

###

Tested on: HT29 colon
Assay: NCI-60 one-dose screen, 48 h
Settings: 10 µM unless noted
About 83,000 compounds went through this panel and 20% of them were active in at least one assay; those are over-represented in the sample as a whole. Calls of active or inactive are those of the source. Rule for the calls: active = growth percent below 10; inactive = the rest.
Please answer using one outcome listed in label 1 for active, label 0 for inactive

The following molecules have reported results that may help.
q: Tell me the recorded outcome of this test for CCCN1CCN(c2ccc3nc(-c4ccc5nc(-c6cc(OC)ccc6OC)[nH]c5c4)[nH]c3c2)CC1 .
a: label 1

q: Outcome? CC(=O)c1ccc2oc(=O)n(Cc3ccc(C#N)cc3)c(=O)c2c1
a: label 0

q: Look up the recorded call for O=C(Nc1ccc(C23CC4CC(CC(c5ccccc5)(C4)C2)C3)cc1)c1cccs1 in this test.
a: label 0

q: Tell me the recorded outcome of this test for COc1ccc(-n2c(C(O)c3ccccc3)nn(CN3CCOCC3)c2=S)cc1 (stereo not given) .
a: label 0

Now consider a different molecule.
q: Check the results log: what was the call for COc1ccc(CSc2nnc(SCC(=O)Nc3ccc(Cl)cc3)s2)cc1 ?
a: label 0

###

Test system: MDA-MB-435 melanoma
Experiment: NCI-60 one-dose screen, 48 h (100 = growth as untreated, 0 = no growth, -100 = all killed)
Conditions: 10 µM unless noted
About 83,000 compounds went through this panel and 20% of them were active in at least one assay; those are over-represented in the sample as a whole.
The reader will find reported growth values listed item by item below.
# number only, unit % dropped from output

Solved cases below.
q: Report growth for O=c1c2cc(F)ccc2sc2c(Nc3ccncc3)nc3ccccc3c12
a: -62.1

q: State its growth: O=C(COc1cc(O)c2c(=O)cc(-c3ccccc3)oc2c1)Nc1ccccc1
a: 95.3

q: Please look at this molecule and report its growth: COc1cc(CNC(=O)c2ccsc2Nc2ccnc(C(F)(F)F)c2)ccc1O
a: 101

q: Give the reported growth for this molecule. CC/C=C\C[C@H](O)C/C=C1/C(=O)C=C[C@@H]1C/C=C\CCCC(=O)OCCS(=O)(=O)c1ccccc1
a: 28.3

Continue with the molecule presented below.
q: Give me measured growth, please, for this molecule: CCN1CCN(C(=S)SCC(=O)Nc2nc3ccc(C)cc3s2)CC1
a: 116

###

Tested on: DU-145 prostate
Assay: NCI-60 one-dose screen, 48 h
Conditions: 10 µM unless noted
Compounds without any hit were thinned out: in the full panel of roughly 83,000, 20% have a hit. Calls of active or inactive are those of the source. How the source made its calls: active means growth percent below 10; inactive means the rest.
Classes to choose from: active, inactive

// below: answered molecules
q: Could you kindly confirm the outcome this assay logged for O=C(O)c1cn(C2CC2)c2cc(N3CCN(C(=O)C[n+]4ccccc4)CC3)c(F)cc2c1=O ?
a: inactive

q: Which outcome was entered for the molecule CC(=O)c1ccc(Nc2nc(NCCO)nc(Nc3ccc(Cl)cc3)n2)cc1 in this test?
a: inactive

q: Recorded call for COc1cccc2c1C=C1CCCCC3=Cc4c(OC)cccc4OC13O2 ?
a: inactive

q: Status in this test for Cc1cc(OC(=O)c2ccc([N+](=O)[O-])cc2)nc2[nH]c(=O)sc12 ?
a: inactive

q: // return assay outcome for COc1cc(/C=C2\CN(S(=O)(=O)c3ccccc3)C/C(=C\c3cc(CN4CCCC4)c(O)c(OC)c3)C2=O)cc(CN2CCCC2)c1O
a: active

Others:
q: Hello, I am checking results. What call was entered for CCN1C(=O)N(CC)C2C1NN=c1s/c(=C3\C(=O)N(C(C)C)c4ccccc43)c(=O)n12 (centres undefined) ?
a: active

q: Which outcome was assigned to CCN1C(=O)N(c2ccccc2)C2Nn3c(s/c(=C4\C(=O)N(C(C)C)c5ccccc54)c3=O)=NC21 (centres undefined) in this test?
a: inactive

q: # lookup: test call for O=C1N=c2ccccc2=C1c1sc(=Nc2ccccc2)n(Nc2ccccc2)c1O
a: inactive

q: For COC(=O)c1c2c(c(C)[n+]([O-])c1C)C(=O)C=C(NCc1ccc(F)c(F)c1)C2=O , what call appears in the results of this test?
a: active

###

Test system: CAKI-1 renal
Assay: NCI-60 one-dose screen, 48 h (100 = growth as untreated, 0 = no growth, -100 = all killed)
Details: 10 µM unless noted
This is part of a sample that, as a whole, favours compounds with a hit. Of some 83,000 tested, about 20% had one in any assay.
measured.metric: growth (%)
Give the value, in units of %, as a plain number.

Worked cases, answers included:
q: Name the value of growth reported for CNC(=O)c1cc(Oc2ccc(CC(=O)Nc3cc(C(C)(C)C)cn3C)cc2)ccn1 when tested on CAKI-1 renal.
a: 56

q: Give growth for CNCCNc1nc2ccccc2c2c(=O)c3cc(F)ccc3sc12 tested on CAKI-1 renal.
a: 44

q: Provide the reported growth (system: CAKI-1 renal) for CN(C)c1ccc(N=Cc2ccc(N3CCOCC3)cc2)cc1
a: 86.6

q: GET growth | system: CAKI-1 renal | item: CCc1ccc(CNCC(O)c2ccccc2)cc1 (stereo not given)
a: 66.4

q: Answer briefly: growth recorded on CAKI-1 renal for COc1cccc(C(=O)Cn2cc(/C=C(\C#N)S(=O)(=O)c3ccccc3)c3ccccc32)c1
a: 118

q: Look up CAKI-1 renal data: growth of O=c1c(-c2nc3ccccc3[nH]2)cc2ccccc2n1Cc1cn(Cc2ccccc2Cl)nn1 , then report it.
a: 77.4

---
q: Specify growth for c1ccc2cc3c(Nc4ccc(N5CCOCC5)cc4)ccnc3cc2c1 , system CAKI-1 renal.
a: 92.8

q: Find the measured growth of NC(=O)CSc1nc(-c2ccc(F)cc2)cc(-c2ccco2)n1 with CAKI-1 renal as test system.
a: 85.7

q: Tell me its growth on CAKI-1 renal: COc1ccc(Nc2nc(N/N=C/c3ccc(O)cc3)nc(Nc3ccc([N+](=O)[O-])cc3)n2)cc1
a: 123

q: Enter recorded growth with CAKI-1 renal for Nc1ccc(-n2c(=O)oc3ccc(Cl)cc3c2=O)c(Cl)c1 here.
a: -21.5

###

System: UO-31 renal
Experiment: NCI-60 one-dose screen, 48 h
Details: 10 µM unless noted
Experimental: Growth inhibition of the UO-31 human tumor cell line is measured as a screen for anti-cancer activity. Cells are grown in 96 well plates and exposed to the test compound for 48 hours. Compounds are tested at a single concentration, which is 10^-5 M for most compounds. The reported endpoint is percent growth (GI% or GIPRCNT), where numbers from 0 - 100% represent growth inhibition, and numbers from -100% - 0 represent cell death. For example, a value of 40 represents 60% growth inhibition. […]
About 83,000 compounds went through this panel and 20% of them were active in at least one assay; those are over-represented in the sample as a whole. Active and inactive are the calls of the source. The calls were made as follows: active = growth percent below 10; inactive = the rest.
Give your call using only these classes: t = active, f = inactive

Record excerpt, results attached:
q: Please share the test call associated with COc1ccc2sc(N(Cc3cccnc3)C(=O)c3ccc(C#N)cc3)nc2c1 .
a: f

q: Outcome logged for COC(=O)/C(CCC=C(C)C)=C1\[C@@H](OC(C)=O)C[C@@]2(C)[C@H]1C[C@@H](O)[C@H]1[C@@]3(C)CC[C@H](NCCO)[C@@H](C)[C@@H]3CC[C@@]12C in this assay:
a: f

q: GET /call?item= COc1ccc(Cn2c(Br)c3c(c2Br)-c2nc(NC(=O)c4ccc(OC)cc4)sc2CC3)cc1 returns the recorded outcome of this test.
a: f

q: How was CCOc1ccc2nc(C)cc(Nc3ccc(Br)cc3)c2c1 classified in this test?
a: f

q: Per the assay record, what outcome was assigned to COc1cc([C@@H]2NC(=O)NC(C)=C2C(=O)Nc2nc(-c3ccc(Cl)cc3)cs2)ccc1O ?
a: f

Continuing:
q: Assay result, entry CSc1nc2c(c(=O)n1C)N=C1c3ccccc3C(=O)C1C(c1ccccc1)N2 (centres undefined) — outcome?
a: f

q: Please indicate how the test categorized COc1ccc(/C=C/C(=O)c2c(C)nc3ccccc3c2/C=C/c2ccccc2)cc1O .
a: f

q: Write down the call the test reported for this compound. Item: CC(C)CCOc1ccc(-c2n[nH]c(C(F)(F)F)c2-c2cncc(C#N)c2)c(O)c1
a: t

q: How was O=C(Nc1ccc(I)cc1F)c1cc(Br)ccc1O classified in this test?
a: t

Values compiled from PubChem BioAssay (NCI).
